Target: T1, TNFR2-His (Sino Biological, 10417-H08H, NP_001057.1 Met1-Asp257, with multi-histidine tag expressed on … (human, UniProt P20333 23-257))
T1 construct: range 1-257; Bought protein; also called recombinant human TNFR2 protein; TNFR2-His antigen; not shown: C-terminal multi-histidine tag
T1 sequence (looked up): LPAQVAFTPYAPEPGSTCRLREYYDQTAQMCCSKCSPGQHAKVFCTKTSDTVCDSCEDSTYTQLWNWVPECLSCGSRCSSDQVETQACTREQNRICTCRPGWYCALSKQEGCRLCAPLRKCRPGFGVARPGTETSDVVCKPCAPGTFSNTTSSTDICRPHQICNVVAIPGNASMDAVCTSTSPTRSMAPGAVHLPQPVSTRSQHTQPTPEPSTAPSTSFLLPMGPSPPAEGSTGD
Test: BLI, antibody captured on AHC probe, TNFR2 in solution
This section presents binders with their documented koff values.
Answer in s⁻¹, number only, no unit symbol.

Sample records with koff:
binder	koff (s⁻¹)
12E12-huVH7 + huVL2(P08938) (antibody, V domains shown, Humanized 12E12) VH: QVQLVQSGAEVKKPGASVKVSCKASGYTITDFYIHWVRQAPGKGLEWMGRVDPEDGNTEYAQKFQGRVTMTTDTSTDTAYMELSSLRSEDTAVYYCSTWDGFSYFDYWGQGTTVTVSS VL: QAVVTQEPSLTVSPGGTVTLTCRSSTGPVTTNNYANWVQQKPGQAFRGLIGGTNDRAPGVPARFSGSLLGGKAALTLSGAQPEDEAEYYCALWYRNHWVFGGGTKLTVL	0.00183
12E12huVH4 + huVL4(P07291) (antibody, V domains shown, Humanized 12E12) VH: EVQLVQSGAEVKKPGATVKISCKVSGFNIKDFYIHWVQQAPGKGLEWIGRVDPEDGNTEYAPNFQDRVTITADTSTDTAYMELSSLRSEDTAVYYCSTWDGFSYFDYWGQGTTVTVSS VL: EAVVTQSPATLSLSPGERATLSCRSSTGPVTTNNYANWVQQKPGQAFRGLIGGTNDRAPGIPARFSGSGSGTDTTLTISSLQPEDFAVYYCALWYRNHWVFGGGTKLEIK	0.00379

Look up koff for this binder: 12E12-huVH6 + huVL4(P08940) (antibody, V domains shown, Humanized 12E12) VH: QVQLVQSGAEVKKPGASVKVSCKASGYTITDFYIHWVRQAPGQGLEWIGRVDPEDGNTEYAPNFQDRATMTTDTSTSTAYLELSSLRSEDTAVYYCSTWDGFSYFDYWGQGTTVTVSS VL: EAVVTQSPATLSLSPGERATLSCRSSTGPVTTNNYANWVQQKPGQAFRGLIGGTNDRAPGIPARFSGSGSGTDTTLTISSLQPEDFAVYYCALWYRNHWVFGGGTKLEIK 0.0034
